ASSAY METHOD TEXT: Density, mass of a measured volume of the liquid
Format: physicochemical
PROTOCOL CONDITIONS: product dried to water content between about 0.2 and 1% w/w
Reported Density (g/cm^3) (error ± ~2%) values for the following compounds.
Give the number; g/mL is assumed, so skip it.

// sample CC(=O)O.CCN(CC)CCO [N,N-diethylethanolammonium acetate] , its Density (g/cm^3) (error ± ~2%) was 1.00

// sample CCC(=O)O.CN(C)CCCO [N,N-dimethylpropanolammonium propionate] , its Density (g/cm^3) (error ± ~2%) was 0.99

// sample CCC(=O)O.CCCNCCO [N-propylethanolammonium propionate] , its Density (g/cm^3) (error ± ~2%) was 1.02

// sample CCC(=O)O.CCCCNCCO [N-butylethanolammonium propionate] , its Density (g/cm^3) (error ± ~2%) was 1.00
